Origin of values: patent US9238656B2

Readings of melting point for the listed compounds

Example cases with answers are listed next.
>>> assay_value("CC(C)(C)OC(=O)N1CCCC(c2nc3c(N[C@H]4[C@@H](C(N)=O)[C@@H]5C=C[C@H]4C5)c(Br)cnc3[nH]2)C1 (stereo partly shown)")
"172 to 177 °C"
>>> assay_value("NC(=O)[C@@H]1[C@H](Nc2c(Br)cnc3[nH]c(-c4ccc(N5CCOCC5)cc4)nc23)[C@H]2C=C[C@@H]1C2")
"283 to 284 °C"
>>> assay_value("NC(=O)[C@@H]1[C@H](Nc2c(Br)cnc3[nH]c(-c4ccsc4)nc23)[C@H]2C=C[C@@H]1C2")
"238 to 241 °C"
>>> assay_value("CN(C)c1cccc(-c2nc3c(N[C@H]4[C@@H](C(N)=O)[C@@H]5C=C[C@H]4C5)c(Br)cnc3[nH]2)c1")
"220 to 221 °C"
>>> assay_value("COc1cc(N2CCC(N3CCN(C)CC3)CC2)ccc1-c1nc2c(N[C@H]3[C@@H](C(N)=O)[C@@H]4C=C[C@H]3C4)ccnc2[nH]1")
"185 to 195 °C"
>>> assay_value("C=CCc1ccc(-c2nc3c(N[C@H]4[C@@H](C(N)=O)[C@@H]5C=C[C@H]4C5)c(Cl)cnc3[nH]2)c(OC)c1")
"123 to 126 °C"
>>> assay_value("COc1cc(CN2CCN(C[C@H](C)O)CC2)ccc1-c1nc2c(N[C@H]3[C@@H](C(N)=O)[C@@H]4C=C[C@H]3C4)c(Cl)cnc2[nH]1")
"142 to 146 °C"
>>> assay_value("NC(=O)[C@@H]1[C@H](Nc2c(Cl)cnc3[nH]c(-c4cccc(C(=O)NC(CO)C(=O)O)c4)nc23)[C@H]2C=C[C@@H]1C2 (stereo partly shown)")
"243 °C"

The reported value for NC(=O)[C@@H]1[C@H](Nc2c(Br)cnc3[nH]c(-c4ccoc4)nc23)[C@H]2C=C[C@@H]1C2 in terms of melting point is 231 to 232 °C

The reported value for COC[C@@H](O)CN1CCC(c2ccc(-c3nc4c(N[C@H]5[C@@H](C(N)=O)[C@@H]6C=C[C@H]5C6)c(Cl)cnc4[nH]3)c(OC)c2)CC1 in terms of melting point is 189 to 191 °C

====

Readings of IC50 for the listed compounds
Target: baculovirus-expressed ALK (Homo sapiens, UniProt Q9UM73)
Sequence (Q9UM73 19-1620): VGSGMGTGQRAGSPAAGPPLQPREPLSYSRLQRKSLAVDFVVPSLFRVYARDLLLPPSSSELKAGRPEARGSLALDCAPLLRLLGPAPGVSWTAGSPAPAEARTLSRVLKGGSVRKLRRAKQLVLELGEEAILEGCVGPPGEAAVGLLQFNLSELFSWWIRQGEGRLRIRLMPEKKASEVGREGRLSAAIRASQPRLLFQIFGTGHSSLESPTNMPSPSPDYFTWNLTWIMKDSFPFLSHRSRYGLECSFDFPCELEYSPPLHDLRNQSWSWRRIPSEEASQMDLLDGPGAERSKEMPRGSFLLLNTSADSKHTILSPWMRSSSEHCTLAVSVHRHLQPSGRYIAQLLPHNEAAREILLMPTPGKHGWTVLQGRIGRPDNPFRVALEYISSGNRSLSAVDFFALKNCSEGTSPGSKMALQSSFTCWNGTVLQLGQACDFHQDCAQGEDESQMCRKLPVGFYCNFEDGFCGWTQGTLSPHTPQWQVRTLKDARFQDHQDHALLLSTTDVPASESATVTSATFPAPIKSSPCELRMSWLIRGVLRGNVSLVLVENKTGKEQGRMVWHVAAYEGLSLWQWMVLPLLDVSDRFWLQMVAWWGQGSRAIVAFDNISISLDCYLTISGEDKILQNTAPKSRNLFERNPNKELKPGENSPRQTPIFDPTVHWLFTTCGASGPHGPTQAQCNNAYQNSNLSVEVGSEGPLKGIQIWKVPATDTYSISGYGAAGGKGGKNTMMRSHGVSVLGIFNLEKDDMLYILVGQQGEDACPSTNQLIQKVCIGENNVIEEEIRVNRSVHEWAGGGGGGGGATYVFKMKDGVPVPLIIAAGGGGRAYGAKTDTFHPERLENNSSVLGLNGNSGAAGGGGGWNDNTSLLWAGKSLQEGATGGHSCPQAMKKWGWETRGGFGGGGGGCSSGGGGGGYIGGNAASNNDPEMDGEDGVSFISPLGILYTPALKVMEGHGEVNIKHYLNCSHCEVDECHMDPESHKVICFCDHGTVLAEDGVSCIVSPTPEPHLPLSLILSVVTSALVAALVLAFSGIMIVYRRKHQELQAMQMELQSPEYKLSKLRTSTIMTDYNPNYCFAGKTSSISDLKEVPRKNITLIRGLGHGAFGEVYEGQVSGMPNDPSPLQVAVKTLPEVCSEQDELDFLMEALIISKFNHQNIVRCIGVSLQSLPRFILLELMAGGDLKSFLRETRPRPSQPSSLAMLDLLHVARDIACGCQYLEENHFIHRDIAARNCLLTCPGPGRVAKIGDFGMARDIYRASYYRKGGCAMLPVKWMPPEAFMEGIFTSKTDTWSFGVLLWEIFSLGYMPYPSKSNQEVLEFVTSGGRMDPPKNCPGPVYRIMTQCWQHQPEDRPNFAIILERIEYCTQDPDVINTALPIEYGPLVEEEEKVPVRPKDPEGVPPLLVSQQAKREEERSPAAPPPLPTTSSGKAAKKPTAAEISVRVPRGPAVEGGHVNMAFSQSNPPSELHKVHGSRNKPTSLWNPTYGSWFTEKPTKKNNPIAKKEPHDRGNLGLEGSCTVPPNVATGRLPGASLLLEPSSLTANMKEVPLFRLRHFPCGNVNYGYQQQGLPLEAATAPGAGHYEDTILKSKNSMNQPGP
Test: ALK kinase inhibition, TRF/ELISA
Assay type: biochemical
Settings: read-out: ALK Potency
Where a name gives a salt, the structure may show the parent alone.

Example cases with answers are listed next.
>>> assay_value("CN1CCN(C(=O)COc2ccc(-c3nc4c(N[C@H]5[C@@H](C(N)=O)[C@@H]6C=C[C@H]5C6)c(Cl)cnc4[nH]3)cc2)CC1")
"< 100 nM"
>>> assay_value("Cn1cc(-c2nc3c(NC45CCC(C)(C(=O)C4)C5(C)C)c(Cl)cnc3[nH]2)cn1 (centres unmarked)")
"1000 to 10000 nM"
>>> assay_value("COC[C@H](O)CN1CCC(n2cc(-c3nc4c(N[C@H]5[C@@H](C(N)=O)[C@@H]6C=C[C@H]5C6)c(Cl)cnc4[nH]3)cn2)CC1")
"< 100 nM"
>>> assay_value("NC(=O)[C@@H]1[C@H](Nc2c(Cl)cnc3[nH]c(-c4ccc(N5CCNCC5)cc4)nc23)[C@H]2C=C[C@@H]1C2 [Compound XV, trifluoroacetic acid salt]")
"< 100 nM"

The reported value for COc1c(CN2CCOCC2)cccc1-c1nc2c(N[C@H]3[C@@H](C(N)=O)[C@@H]4C=C[C@H]3C4)c(Cl)cnc2[nH]1 in terms of IC50 is < 100 nM
